- system-name: CDK2/Cyclin A (Homo sapiens, UniProt P24941)
- Construct: purchased Invitrogen PV6290
- experiment-summary: Enzymatic assay for CDK2 (FRET based LANCE Ultra kinase assay)
- Assay type: biochemical
- assay-conditions: read-out: CDK2 enzymatic activity (IC50 range)
measured-property: IC50

Example entries and their recorded answers appear below.
CC(C)c1cnn2c(NCc3ccccc3-n3cccn3)nc(-c3cccc(C4CCNCC4)c3)nc12 :: > 1000 nM
CC(C)c1cnn2c(NCc3ccccc3-n3cc4cc(Cl)ccc4n3)nc(N3CCC(N)CC3)nc12 :: 100 to 1000 nM
CC(C)c1cnn2c(NCc3ccccc3-n3ccc(C(C)(C)O)n3)nc(NC[C@H]3CCNC[C@@H]3O)nc12 :: 100 to 1000 nM
CC(C)c1cnn2c(NCc3ccccc3-c3cc4ccccc4[nH]3)nc(OC3CCN(C)CC3)nc12 :: 100 to 1000 nM

Shifting focus to the molecule that follows.
Problem: Tell me reported IC50 for CC(C)c1cnn2c(NCc3ccccc3Oc3ccc(NC(=O)CCCN(C)C)cc3)nc(N3CCC(N)CC3)nc12 , tested with CDK2/Cyclin A (Homo sapiens, UniProt P24941).
Solution: 100 to 1000 nM

---

- system-name: CDK1/Cyclin B (Homo sapiens)
- Construct: purchased Invitrogen PR4768C
- Sequence (P06493 whole entry): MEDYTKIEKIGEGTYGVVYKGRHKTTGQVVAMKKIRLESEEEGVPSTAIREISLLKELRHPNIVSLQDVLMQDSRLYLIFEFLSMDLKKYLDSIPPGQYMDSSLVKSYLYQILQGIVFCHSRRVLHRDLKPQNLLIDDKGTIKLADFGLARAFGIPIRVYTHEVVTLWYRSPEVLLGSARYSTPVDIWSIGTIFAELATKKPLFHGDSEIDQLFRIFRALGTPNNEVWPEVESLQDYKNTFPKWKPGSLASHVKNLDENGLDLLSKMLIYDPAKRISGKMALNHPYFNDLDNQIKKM
- Sequence (P14635 whole entry partner): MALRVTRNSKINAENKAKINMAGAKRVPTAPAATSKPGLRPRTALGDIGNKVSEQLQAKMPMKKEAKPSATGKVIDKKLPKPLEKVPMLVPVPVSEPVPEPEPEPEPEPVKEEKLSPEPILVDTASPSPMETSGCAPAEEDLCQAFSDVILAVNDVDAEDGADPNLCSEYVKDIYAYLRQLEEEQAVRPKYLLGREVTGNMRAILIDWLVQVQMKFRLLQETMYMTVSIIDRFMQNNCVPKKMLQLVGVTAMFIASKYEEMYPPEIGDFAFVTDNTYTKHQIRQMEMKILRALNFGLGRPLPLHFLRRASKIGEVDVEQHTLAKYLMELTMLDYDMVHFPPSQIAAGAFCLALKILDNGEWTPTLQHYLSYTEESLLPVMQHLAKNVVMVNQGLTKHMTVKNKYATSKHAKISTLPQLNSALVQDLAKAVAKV
- experiment-summary: Enzymatic assay for CDK1 (FRET based LANCE Ultra kinase assay)
- Format: biochemical
- assay-conditions: read-out: CDK1 enzymatic activity (IC50 range)
pIC50: −log10 of the molar value.
measured-property: pIC50

CC(C)c1cnn2c(NCc3cccc(NC(=O)c4cccc(NC(=O)CCCN(C)C)c4)c3)nc(N3CCC(N)CC3)nc12 [Compound 70] :: < 6.00

Problem: Consider the compound CC(C)c1cnn2c(NCc3cccc(N4CCN(C)CC4)c3)nc(N3CCC(N)CC3)nc12 [Compound 83] and give its measured pIC50.
Solution: < 6.00

Problem: GET /values?readout=pIC50&item= CC(C)c1cnn2c(NCc3c(Cl)cccc3-n3ccc(C(C)(C)O)n3)nc(N3CCC(C)(N)CC3)nc12 [Compound 246]
Solution: < 6.00

Problem: Please give the measured pIC50 for this compound: CC(C)c1cnn2c(NCc3cccc(-n4cccn4)c3)nc(N3CCC(N)CC3)nc12 [Compound 47]
Solution: 6.00 to 7.00

Problem: Given CC(C)c1cnn2c(NCc3ccccc3-c3cn4ccc(F)cc4n3)nc(N3CCC(N)CC3)nc12 [Compound 124] , state its recorded pIC50.
Solution: 6.00 to 7.00

Problem: If you can, please state the reported pIC50 value of CC(C)c1cnn2c(NCc3cccc(Oc4ccccc4)c3)nc(N3CCC(N)CC3)nc12 [Compound 51] .
Solution: < 6.00

Problem: Which value of pIC50 has been reported for CNC(=O)c1ccc2nc(-c3ccccc3CNc3nc(N4CCC(N)CC4)nc4c(C(C)C)cnn34)cnc2c1 [Compound 153] in the records?
Solution: < 6.00

---

- System: RPMI-8226
- experiment-summary: Cellular RPMI-8226 viability assay (CellTiter-Glo, 72 hours)
- Assay type: cell-based
- assay-conditions: Homo sapiens
pIC50: −log10 of the molar value.
measured-property: pIC50

Look over these answered cases.
CC(C)c1cnn2c(NCc3c(F)cccc3-n3cccn3)nc(N3CCC(N)CC3)nc12 [Compound 42] :: > 6.00
CC(C)c1cnn2c(NCc3ccccc3-c3cc4ccccc4[nH]3)nc(N3CCCC(N)C3)nc12 (racemic) [Compound 125] :: 5.00 to 6.00
CC(C)c1cnn2c(NCc3ccccc3-n3cc4cc(F)ccc4n3)nc(N3CCC(N)CC3)nc12 [Compound 108] :: > 6.00
CC(C)c1cnn2c(NCc3ccccc3-c3cc4ccccc4[nH]3)nc(N3CCC(C(N)=O)CC3)nc12 [Compound 117] :: 5.00 to 6.00
NC1CCN(c2nc(NCc3ccccc3-n3cccn3)n3ncc(Br)c3n2)CC1 [Compound 18] :: > 6.00

Problem: Given the entry CC(C)c1cnn2c(NCc3ccccc3-c3nc4ccccc4n3C)nc(N3CCC(N)CC3)nc12 [Compound 96] , report its measured pIC50.
Solution: > 6.00

Problem: Sample CC(C)c1cnn2c(N[C@@H](C)c3ccccc3-n3cccn3)nc(N3CCC(N)CC3)nc12 [Compound 21] — what was its pIC50?
Solution: 5.00 to 6.00

Problem: So what does the record say about pIC50 for CC(C)c1cnn2c(NCc3ccccc3-c3cc4ccccc4[nH]3)nc(N3CCOC(CN)C3)nc12 (racemic) [Compound 130] ?
Solution: > 6.00

Problem: Quick one: pIC50 for CC(=O)NC1CCN(c2nc(NCc3ccccc3-c3cc4ccccc4[nH]3)n3ncc(C(C)C)c3n2)CC1 [Compound 111] ?
Solution: 5.00 to 6.00

Problem: Which measured pIC50 value corresponds to CC(C)c1cnn2c(NCc3ccccc3-c3cc4ccccc4cn3)nc(N3CCC(N)CC3)nc12 [Compound 78] ?
Solution: > 6.00

Problem: Any idea what pIC50 was measured for CC(C)c1cnn2c(NCc3c(Cl)cccc3-c3cc4ccccc4[nH]3)nc(N3CCC(N)CC3)nc12 [Compound 182] ?
Solution: > 6.00

Problem: If you can, please state the reported pIC50 value of CC(C)c1cnn2c(NCc3ccccc3-c3cc4c(F)cccc4[nH]3)nc(N3CCC(N)CC3)nc12 [Compound 112] .
Solution: > 6.00

Problem: If you can, please state the reported pIC50 value of CC(C)c1cnn2c(NCc3ccccc3-c3ccc4ccccc4n3)nc(N3CCC(N)CC3)nc12 [Compound 48] .
Solution: > 6.00

Problem: Entry under review: CC(C)c1cnn2c(NCc3ccccc3-c3cnc4ccccc4n3)nc(N3CCC(N)CC3)nc12 [Compound 80] . Reported pIC50?
Solution: > 6.00

Problem: Using the record for CC(C)c1cnn2c(NCc3ccccc3-n3cccn3)nc(-c3cccc(C(=O)N4CCC(N)CC4)c3)nc12 [Compound 171] , report its pIC50.
Solution: 5.00 to 6.00

Problem: Can you look up the measured pIC50 of CC(C)c1cnn2c(NCc3ccccc3-c3ccc4[nH]c(NC(=O)C5CC5)nc4c3)nc(N3CCC(N)CC3)nc12 [Compound 141] for me?
Solution: > 6.00

Problem: I am curious: what pIC50 value has been reported for CC(C)c1cnn2c(NCc3ccccc3-n3cc4c(n3)CCOC4)nc(N3CCC(N)CC3)nc12 [Compound 133] ?
Solution: > 6.00

---

- system-name: CDK2/Cyclin A (Homo sapiens, UniProt P24941)
- Construct: purchased Invitrogen PV6290
- experiment-summary: Enzymatic assay for CDK2 (FRET based LANCE Ultra kinase assay)
- Assay type: biochemical
- assay-conditions: read-out: CDK2 enzymatic activity (IC50 range)
pIC50: −log10 of the molar value.
The following molecules are shown together with reported pIC50 values.

Solved entries (count: 3):
CC(C)c1cnn2c(NCc3ccccc3-n3cccn3)cc(N3CCC(N)CC3)nc12 :: < 6.00
CC(=O)N(C)c1ccccc1CNc1nc(N2CCC(N)CC2)nc2c(C(C)C)cnn12 :: < 6.00
CC(C)c1cnn2c(NCc3ccccc3-n3cc4ccncc4n3)nc(N3CCC(N)CC3)nc12 :: 6.00 to 7.00

Turning now to a further molecule:
Problem: Requested field: pIC50. Item: CC(C)c1cnn2c(NCc3ccccc3-c3[nH]c4ccccc4c3Cl)nc(N3CCC(N)CC3)nc12
Solution: 6.00 to 7.00

---

- system-name: CDK2/Cyclin A (Homo sapiens)
- Construct: purchased Invitrogen PV6290
- experiment-summary: Enzymatic assay for CDK2 (FRET based LANCE Ultra kinase assay)
- Assay type: biochemical
- assay-conditions: read-out: CDK2 enzymatic activity (IC50 range)
pIC50: −log10 of the molar value.
The following compounds are shown together with reported pIC50 values.

CC(C)c1cnn2c(NCc3ccccc3-c3ncc4ccccc4n3)nc(N3CCC(N)CC3)nc12 :: 6.00 to 7.00
CC(C)c1cnn2c(NCc3ccccc3-n3cccn3)nc(N3CCC(C)(N)CC3)nc12 :: 6.00 to 7.00
CC(C)c1cnn2c(NCc3ccccc3Nc3ccccc3)nc(N3CCC(N)CC3)nc12 :: 6.00 to 7.00
CC(C)c1cnn2c(NCc3ccccc3-c3cn4c(n3)CCCC4)nc(N3CCC(N)CC3)nc12 :: 6.00 to 7.00

Problem: Sample CC(C)c1cnn2c(NCc3ccc(Cl)c(-n4cccn4)c3)nc(N3CCC(N)CC3)nc12 — what was its pIC50?
Solution: 6.00 to 7.00

Problem: Find the recorded pIC50 belonging to CC(C)C(=O)N1CCc2nn(-c3ccccc3CNc3nc(N4CCC(N)CC4)nc4c(C(C)C)cnn34)cc2C1 and report it.
Solution: 6.00 to 7.00

Problem: So what's the measured pIC50 for this one? CC(C)c1cnn2c(NCc3cccc4ccc(N)nc34)nc(N3CCC(N)CC3)nc12
Solution: 6.00 to 7.00

Problem: Field request: pIC50 | item: CC(C)c1cnn2c(NCc3ccccc3-n3cc(C(=O)N4CCN(C)CC4)cn3)nc(N3CCC(N)CC3)nc12
Solution: 6.00 to 7.00

Problem: Sample CC(C)c1cnn2c(NCc3ccccc3-c3ccc4ccccc4[n+]3[O-])nc(N3CCC(N)CC3)nc12 — what was its pIC50?
Solution: < 6.00

Problem: Look up pIC50 for this compound: CC(C)c1cnn2c(NCc3ccccc3-n3cccn3)nc(-c3cccc(OC4CCNC4)c3)nc12 (racemic)
Solution: 6.00 to 7.00

Problem: Record request: pIC50 value, item CC(C)c1cnn2c(NCc3ccccc3-n3cc4ccccc4n3)nc(N3CCC(N)CC3)nc12
Solution: 6.00 to 7.00

Problem: Param item = CC(C)c1cnn2c(NCc3ccccc3-c3nccc4c(NC(=O)CCCN(C)C)cccc34)nc(N3CCC(N)CC3)nc12 ; retrieve measured pIC50.
Solution: < 6.00

Problem: Consider the compound shown here: CC(C)c1cnn2c(NCc3cccc(Oc4ccc(Cl)c(NC(=O)CCCN(C)C)c4)c3)nc(N3CCC(N)CC3)nc12 What is its recorded pIC50?
Solution: 6.00 to 7.00

Problem: So what's the measured pIC50 for this one? CC(C)c1cnn2c(NCc3ccccc3OC3CCN(C)CC3)nc(N3CCC(N)CC3)nc12
Solution: < 6.00

// provenance: patent US11945822B2
